# assayedTarget: Nuclear receptor subfamily 1 group I member 2 (Homo sapiens) (UniProt O75469)
# measurementProtocol: CYP3A4 induction through human pregnane X receptor (PXR) by small molecules, qHTS assay (AID 1346984); further: nearly all actives have a fitted effect of over 40% in size
# reportedConditions: DPX-2 HepG2 PXR, CYP3A4-luciferin luminescence, 24 h; series mostly up to 46.1 µM
Records with an inconclusive call do not appear. The source made the active and inactive calls. The call rests on the fitted dose curve; in most records, active means well fitted activation curve with a large enough effect in the repeat runs; inconclusive means weak or mixed curves; inactive means no such curve, though single readings can be large or run the other way.

{"molecule": "O=C(O)c1ccc[n+]([O-])c1", "assayedTarget": "Nuclear receptor subfamily 1 group I member 2 (Homo sapiens) (UniProt O75469)", "outcome": "inactive"}
{"molecule": "Nc1cc(C(Cl)=C(Cl)Cl)c(S(N)(=O)=O)cc1S(N)(=O)=O", "assayedTarget": "Nuclear receptor subfamily 1 group I member 2 (Homo sapiens) (UniProt O75469)", "outcome": "inactive"}
{"molecule": "CC(C)[N+](C)(C)CC(O)COc1cccc2ccccc12 (stereo unspecified)", "assayedTarget": "Nuclear receptor subfamily 1 group I member 2 (Homo sapiens) (UniProt O75469)", "outcome": "inactive"}
{"molecule": "C=CCn1c(=O)n([C@@H]2O[C@H](CO)[C@@H](O)[C@H]2O)c2nc(N)[nH]c(=O)c21", "assayedTarget": "Nuclear receptor subfamily 1 group I member 2 (Homo sapiens) (UniProt O75469)", "outcome": "inactive"}
{"molecule": "Cn1ccc2cc3c(cc21)CCN3C(=O)Nc1cccnc1", "assayedTarget": "Nuclear receptor subfamily 1 group I member 2 (Homo sapiens) (UniProt O75469)", "outcome": "inactive"}
{"molecule": "COc1cc(O)cc(O)c1", "assayedTarget": "Nuclear receptor subfamily 1 group I member 2 (Homo sapiens) (UniProt O75469)", "outcome": "inactive"}
{"molecule": "CCCCCCCCCCCCCCCCCCOCC(O)CO (stereo unspecified)", "assayedTarget": "Nuclear receptor subfamily 1 group I member 2 (Homo sapiens) (UniProt O75469)", "outcome": "inactive"}
{"molecule": "CC(C)[C@H](N)C(=O)OCCOCn1cnc2c(=O)[nH]c(N)nc21", "assayedTarget": "Nuclear receptor subfamily 1 group I member 2 (Homo sapiens) (UniProt O75469)", "outcome": "inactive"}
{"molecule": "NC(CS)C(=O)O (stereo unspecified)", "assayedTarget": "Nuclear receptor subfamily 1 group I member 2 (Homo sapiens) (UniProt O75469)", "outcome": "inactive"}
{"molecule": "C[C@H]1O[C@@H](n2cc(F)c(=O)[nH]c2=O)[C@H](O)[C@@H]1O", "assayedTarget": "Nuclear receptor subfamily 1 group I member 2 (Homo sapiens) (UniProt O75469)", "outcome": "inactive"}
{"molecule": "COC(=O)[C@H]1[C@H]2C[C@@H]3c4[nH]c5cc(OC)ccc5c4CCN3C[C@H]2C[C@@H](OC(=O)COc2ccc(OC)cc2)[C@@H]1OC", "assayedTarget": "Nuclear receptor subfamily 1 group I member 2 (Homo sapiens) (UniProt O75469)", "outcome": "inactive"}

---

# measurementProtocol: qHTS assay to identify small molecule antagonists of the estrogen receptor alpha (ER-alpha) signaling pathway using the BG1 cell line in the presence of 0.1 nM 17-beta-estradiol - cell viability counter screen (AID 1259241); further: nearly all actives have a fitted effect of over 40% in size
# reportedConditions: VM7Luc4E2 (BG1) viability, CellTiter-Fluor protease, 22 h, 0.1 nM estradiol agonist added; series mostly up to 92.4 µM
Inconclusive results are not listed. Active and inactive are the calls of the source. Calls come from the whole dose curve; as a rule, active = well fitted cell-killing curve with a large enough effect in the repeat runs; inconclusive = weak or mixed curves, or effect the other way; inactive = flat fitted curve, though single readings scatter.

{"molecule": "NC(=O)Nc1nc2ccccc2[nH]1", "activity change, negative = cytotoxicity": "inactive"}
{"molecule": "OCC(O)[C@@H](O)[C@H](O)[C@H](O)CO[C@H]1O[C@H](CO)[C@@H](O)[C@H](O)[C@H]1O (stereo partly drawn)", "activity change, negative = cytotoxicity": "inactive"}
{"molecule": "CC(C)(C)CC(C)(C)N", "activity change, negative = cytotoxicity": "inactive"}

---

# measurementProtocol: qHTS assay to identify small molecule antagonists of the vitamin D receptor (VDR) signaling pathway - cell viability counter screen (AID 743225); further: nearly all actives have a fitted effect of over 50% in size
# reportedConditions: VDR-bla HEK293T viability, CellTiter-Glo luminescence, 16 h; series mostly up to 61 µM
Records with an inconclusive call do not appear. Calls of active or inactive are those of the source. Calls come from the whole dose curve; as a rule, active = well fitted cell-killing curve with a large enough effect in the repeat runs; inconclusive = weak or mixed curves, or effect the other way; inactive = no such curve, though single readings can be large or run the other way.

{"compound": "OC1OC[C@@H](O)[C@H](O)[C@H]1O (some centres undefined)", "viability change, negative = cytotoxic": "inactive"}
{"compound": "CC(C)=CC(=O)O", "viability change, negative = cytotoxic": "inactive"}
{"compound": "CC(=O)CCc1ccc(O)cc1", "viability change, negative = cytotoxic": "inactive"}
{"compound": "Cc1onc(-c2ccccc2)c1-c1ccc(S(N)(=O)=O)cc1", "viability change, negative = cytotoxic": "inactive"}
{"compound": "c1ccc(SCCSc2ccccc2)cc1", "viability change, negative = cytotoxic": "inactive"}
{"compound": "O=[N+]([O-])c1ccc(CCO)cc1", "viability change, negative = cytotoxic": "inactive"}
{"compound": "Nc1nc(F)nc2c1ncn2[C@@H]1O[C@H](CO)[C@@H](O)[C@@H]1O", "viability change, negative = cytotoxic": "inactive"}
{"compound": "Cc1nc(-c2ccc(OCC(C)C)c(C#N)c2)sc1C(=O)O", "viability change, negative = cytotoxic": "inactive"}
{"compound": "O=Cc1ccccc1[N+](=O)[O-]", "viability change, negative = cytotoxic": "inactive"}
{"compound": "CCO[Si](C)(OCC)OCC", "viability change, negative = cytotoxic": "inactive"}
{"compound": "[O-][N+](=Nc1ccccc1)c1ccccc1", "viability change, negative = cytotoxic": "inactive"}
{"compound": "CCCCCCCCN(C)CCCCCCCC", "viability change, negative = cytotoxic": "inactive"}
{"compound": "COC(=O)[C@H]1[C@H]2C[C@@H]3c4[nH]c5cc(OC)ccc5c4CCN3C[C@H]2C[C@@H](OC(=O)COc2ccc(OC)cc2)[C@@H]1OC", "viability change, negative = cytotoxic": "inactive"}
{"compound": "C=CCn1c(=O)n([C@@H]2O[C@H](CO)[C@@H](O)[C@H]2O)c2nc(N)[nH]c(=O)c21", "viability change, negative = cytotoxic": "inactive"}
{"compound": "O=C1CC2(CCCC2)CC(=O)N1", "viability change, negative = cytotoxic": "inactive"}
{"compound": "N[C@@H](CS)C(=O)O", "viability change, negative = cytotoxic": "inactive"}
{"compound": "C=CC(=O)N1CCOCC1", "viability change, negative = cytotoxic": "inactive"}
{"compound": "CCCCCC[C@@H](CCC)C(=O)O", "viability change, negative = cytotoxic": "inactive"}
{"compound": "CCn1c(=O)c2c(nc(/C=C/c3ccc(OC)c(OC)c3)n2C)n(CC)c1=O", "viability change, negative = cytotoxic": "inactive"}
{"compound": "CCCCC=O", "viability change, negative = cytotoxic": "inactive"}
{"compound": "COC(=O)CCCCCCCCC(=O)OC", "viability change, negative = cytotoxic": "inactive"}
{"compound": "CC(C)(O)c1ccccc1", "viability change, negative = cytotoxic": "inactive"}
{"compound": "C#CC(O)C(CC)CCCC (centres undefined)", "viability change, negative = cytotoxic": "inactive"}
{"compound": "CO[Si](OC)(OC)OC", "viability change, negative = cytotoxic": "inactive"}
{"compound": "CN(C)N=Nc1ccccc1", "viability change, negative = cytotoxic": "inactive"}
{"compound": "C#CC(O)CCCCC (centres undefined)", "viability change, negative = cytotoxic": "inactive"}
{"compound": "O=S(=O)(O)c1ccccc1O", "viability change, negative = cytotoxic": "inactive"}
{"compound": "Cc1ccc(N)cc1[N+](=O)[O-]", "viability change, negative = cytotoxic": "inactive"}
{"compound": "CC(C)[N+](C)(C)CC(O)COc1cccc2ccccc12 (centres undefined)", "viability change, negative = cytotoxic": "inactive"}

---

# assayedTarget: Cytochrome P450 2C19 (Homo sapiens)
# measurementProtocol: Cytochrome P450 Family 2 Subfamily C Member 19 (CYP2C19) small molecule antagonists: luciferase reporter qHTS assay (AID 1671197); further: nearly all actives have a fitted effect of over 65% in size
# reportedConditions: P450-Glo CYP2C19 enzyme, luciferin luminescence, 1 h; series mostly up to 115 µM
Inconclusive results are not listed. Calls of active or inactive are those of the source. Calls follow the shape of the dose curve; as a rule, active = well fitted inhibition curve with a large enough effect in the repeat runs; inconclusive = weak or mixed curves; inactive = no such curve, though single readings can be large or run the other way.
Possible outcomes: YES (active), NO (inactive)

{"compound": "Cc1cc(C)cc(OCC2CNC(=O)O2)c1 (configuration not stated)", "group": "NO"}
{"compound": "CN(C)N=Nc1ccccc1", "group": "NO"}
{"compound": "O=C(O)C1CCC1", "group": "NO"}
{"compound": "CC(C)(O)c1ccccc1", "group": "YES"}
{"compound": "CCCCCCC(CCCCCCCCCCC(=O)OCC(COC(C)=O)OC(C)=O)OC(C)=O (configuration not stated)", "group": "NO"}
{"compound": "O=C(O)Cc1cc(I)c(Oc2cc(I)c(O)c(I)c2)c(I)c1", "group": "NO"}
{"compound": "CCCCCCC(=O)OCC", "group": "NO"}
{"compound": "CC1CCN(CCCC(=O)c2ccc(F)cc2)CC1", "group": "YES"}
{"compound": "Cc1ccccc1C(=O)O", "group": "NO"}
{"compound": "C[N+](C)(C)CC[N+]1(C)Cc2c(Cl)c(Cl)c(Cl)c(Cl)c2C1", "group": "NO"}
{"compound": "C=C[Si](OC)(OC)OC", "group": "NO"}
{"compound": "Cc1c(C)n(CCN(C)C)c2ccc(C(=O)OCCN(C)C)cc12", "group": "NO"}
{"compound": "CCCCN(CCO)CCO", "group": "NO"}
{"compound": "NC(=O)c1c(Cl)cccc1Cl", "group": "YES"}
{"compound": "CCCCCCCCN(C)CCCCCCCC", "group": "NO"}
{"compound": "CC(C)=CC(=O)O", "group": "NO"}
{"compound": "NC1CCN(c2cccc(Cl)n2)CC1", "group": "NO"}
{"compound": "COc1cc(C)cc(O)c1", "group": "NO"}
{"compound": "CC(C)c1cccc(O)c1", "group": "NO"}
{"compound": "CCO[Si](C)(OCC)OCC", "group": "NO"}
{"compound": "NCCN1CCNC1=O", "group": "NO"}
{"compound": "COC(C(=O)O)c1ccccc1 (configuration not stated)", "group": "NO"}
{"compound": "CC(=O)c1ccc(C)cc1", "group": "NO"}
{"compound": "CSc1nc(NC2CC2)nc(NC(C)(C)C)n1", "group": "YES"}
{"compound": "CC(C)N1C(=O)c2ccccc2C1=O", "group": "NO"}
{"compound": "CCCC(C)CO (configuration not stated)", "group": "NO"}
{"compound": "C=C(C)C(=O)OCCC(C)OC(=O)C(=C)C (configuration not stated)", "group": "NO"}
{"compound": "CC1=CC(C)C(C=O)C(C)C1 (configuration not stated)", "group": "NO"}
{"compound": "C#CC(C)(O)CC(C)C (configuration not stated)", "group": "NO"}
{"compound": "C=CCOCC(O)CS(=O)(=O)O (configuration not stated)", "group": "YES"}
{"compound": "CSc1ccc(C=O)cc1", "group": "NO"}
{"compound": "CC(C)c1ccc2oc3nc(N)c(C(=O)O)cc3c(=O)c2c1", "group": "YES"}
